- experimental-target: EBOV Mayinga (GenBank: NC_002549) (Zaire Ebolavirus (EBOV Mayinga)) (UniProt Q05320)
- assay-summary: cell-based or functional assay
Form field: neutralization concentration (GMC, CPE reduction on Vero C1008 cells) (one value per entry).
Quick reminder: number only, in µg/mL, skip the unit.

Below are worked cases with known answers.
>>> endpoint_result("3T0202 (antibody, V domains shown) VH: EVQLVESGGGLVQPGGSLRLSCAASGFKFRSYDMHWVRQRSGEGLEWVAAIGTAADTYYLGSVRGRFTISRENAKNSLYLQMDSLGAGDTAVYYCARAAFGAVFFDYWGQGTLVTVSS VL: EIVLTQSPGTLSLSSGERATLSCRASQSISSSYLVWYQQKLGQAPRLLIYGASRRATGIPDRFSGSGSGTDFTLTISRLEPEDFAVYYCQQYGNSPITFGQGTRLEIK")
0.53
>>> endpoint_result("3T0245 (antibody, V domains shown) VH: EVQLVESGGDLVKPGGSLRLSCEASGFTFTNAWMNWVRQSPGKGLEWIGRVKSKSDGGAADYAAPVKGRFTISRDDSKNSVFLQMRSLKPEDTGVYYCATRVHYNGMDVWGRGTTVTVSS VL: QSVLTQPPSVSGAPGQRVTISCAGSGSNIGAGYDVHWYQQLPGTAPKLLIYANHNRPSGVPDRFSGSKSGSSASLAITGLQAEDEADYYCQSYDSSLRDACVFGGGTKLTV")
0.63

Item: 3T0331 (antibody, V domains shown) VH: EVQLLESGGGLVQPGGSLRLSCEASGFPLRDYAMSWVRQAPGRGLQWVSTIGGNDNAANYADSVKGRFTVSRDNSKSTIYLQMNSLRAEDTALYFCAKSVRLSRPSPFDLWGQGSLVTVSS VL: EIVLTQSPATLSLSPGERATLSCRASQSVSTYLAWYQHQPGQAPRLLIYEASNRATGIPARFSGSGSGTEFTLTISSLEPEDVAVYYCQQRASWPLTFGGGTKVEIK | neutralization concentration (GMC, CPE reduction on Vero C1008 cells): 0.011
